Species on record: Homo sapiens
Procedure text: Inhibition of CAMKII (unknown origin) using syntide-2 as substrate assessed as maximum efficacy at 50 uM incubated for 30 mins by spectrophotometric analysis relative to control
Measured attribute: Imax (%)
Respond numerically; units are % and should not be typed.

Reference set (4 entries):
COc1ccc2[nH]c(C(O)c3ccc(Cl)cc3)c(CCNC(C)=O)c2c1 (stereo unspecified); 40
COc1ccc2cccc(CCNC(C)=O)c2c1; 20
COC(=O)NCCc1c(C(O)c2ccccc2)[nH]c2ccc(OC)cc12 (stereo unspecified); 40
CCC(=O)NCC[C@@H]1CCc2ccc3c(c21)CCO3; 20

Noted for COc1ccc2[nH]cc(CCNC(C)=O)c2c1 : its Imax reads 20

The compound COc1ccc2[nH]c(C(O)c3ccc(F)cc3)c(CCNC(C)=O)c2c1 (stereo unspecified) showed Imax equal to 40

---

Target of assay: Melatonin receptor type 1B (Homo sapiens, UniProt P49286)
Sequence (P49286 whole entry): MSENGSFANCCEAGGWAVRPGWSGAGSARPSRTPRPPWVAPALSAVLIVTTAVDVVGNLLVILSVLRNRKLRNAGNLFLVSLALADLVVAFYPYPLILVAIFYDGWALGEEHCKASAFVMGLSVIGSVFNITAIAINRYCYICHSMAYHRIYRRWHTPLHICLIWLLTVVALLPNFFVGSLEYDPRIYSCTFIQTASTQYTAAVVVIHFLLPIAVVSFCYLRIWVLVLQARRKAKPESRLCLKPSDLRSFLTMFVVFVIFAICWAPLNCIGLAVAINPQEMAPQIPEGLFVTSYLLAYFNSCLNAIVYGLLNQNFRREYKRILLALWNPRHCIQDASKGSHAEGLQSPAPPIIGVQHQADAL
Procedure text: Partial agonist activity at human melatonin MT2 receptor expressed in HEK293 cells co-transfected with Galphai9 chimera construct assessed as stimulation of inositol phosphate production by HTRF based assay
Measured attribute: pEC50
Note on pEC50: it is the negative log10 of concentration, concentration in mol/L.

COc1ccc2[nH]c(C(O)c3ccccc3)c(CCNC(C)=O)c2c1 (stereo not given); 6.65

// next entry
GET /value?item= COC(=O)NCCc1c(C(O)c2ccc(F)cc2)[nH]c2ccc(OC)cc12 (stereo not given) &field=pEC50 returns 6.59

---

Target of assay: Melatonin receptor type 1B (Homo sapiens)
Measured attribute: Ki (µM)
Write the number in µM without appending the unit.

Reference set (6 entries):
COC(=O)NCCc1c(C(O)c2ccc(OC)cc2F)[nH]c2ccc(OC)cc12 (stereo not given); 4.9
COc1ccc2[nH]c(C(O)c3ccc(Cl)cc3)c(CCNC(C)=O)c2c1 (stereo not given); 0.0513
COC(=O)NCCc1c(C(O)c2ccccc2)[nH]c2ccc(OC)cc12 (stereo not given); 0.191
O=C(NCCc1c(C(O)c2ccccc2)[nH]c2ccccc12)C(F)(F)F (stereo not given); 1.15
CC(=O)NCCc1c(C(O)c2ccc(Cl)cc2)[nH]c2ccccc12 (stereo not given); 4.37
CC(=O)NCCc1c(C(O)c2ccccc2)[nH]c2ccccc12 (stereo not given); 1

Record COC(=O)NCCc1c(C(O)c2ccc(OC)cc2)[nH]c2ccc(OC)cc12 (stereo not given) . Reported Ki: 66.1

The compound listed as COc1ccc(C(O)c2[nH]c3ccc(OC)cc3c2CCNC(C)=O)c(F)c1 (stereo not given) shows Ki equal to 0.295

Summary for this compound, COC(=O)NCCc1c(C(O)c2ccc(F)cc2)[nH]c2ccc(OC)cc12 (stereo not given) : Ki is 0.741

So, COC(=O)NCCc1c(C(O)c2ccccc2)[nH]c2ccccc12 (stereo not given) ? Its Ki was 2
